Value source: patent US12404283B2

# Test system: c-Myc
# method summary: c-Myc immunofluorescence assay
# Format: cell-based, human
# experimental conditions: A549 cells, 24 hours treatment, anti-c-Myc immunofluorescence
Counter-ions that a name gives are not always drawn.

{"molecule": "O=C(NCCCN1CCCCC1)c1ccc2c(c1)sc1nc(-c3ccc(Cl)cc3)cn12 [compound 132]", "Myc Efficacy (−LogEC50)": "++ (++ ≥5 and <6)"}
{"molecule": "CNC(=O)c1ccc(-c2cn3c(n2)sc2cc(C(=O)N[C@H]4[C@@H]5CNC[C@@H]54)ccc23)cc1 [compound 253]", "Myc Efficacy (−LogEC50)": "+ (+ >3 and <5)"}
{"molecule": "CNC(=O)c1ccc(-c2cn3c(n2)sc2cc(C(=O)NC(C)Cn4cccn4)ccc23)cc1 (stereo not drawn) [compound 221]", "Myc Efficacy (−LogEC50)": "+ (+ >3 and <5)"}
{"molecule": "CNC(=O)c1ccc(-c2cn3c(n2)sc2cc(C(=O)NCC4CCCO4)ccc23)cc1 (stereo not drawn) [compound 204]", "Myc Efficacy (−LogEC50)": "+ (+ >3 and <5)"}
{"molecule": "CNC(=O)c1ccc(-c2cn3c(n2)sc2cc(C(=O)N[C@@H]4CCCN(C)C4)ccc23)cc1 [compound 301]", "Myc Efficacy (−LogEC50)": "+ (+ >3 and <5)"}
{"molecule": "CNC(=O)c1ccc(-c2cn3c(n2)sc2cc(C(=O)NCCN4CC5(COC5)C4)ccc23)cc1 [compound 183]", "Myc Efficacy (−LogEC50)": "+ (+ >3 and <5)"}
{"molecule": "CNC(=O)c1ccc(-c2cn3c(n2)sc2cc(C(=O)NC4CC(O)C4(C)C)ccc23)cc1 (stereo not drawn) [compound 258]", "Myc Efficacy (−LogEC50)": "+ (+ >3 and <5)"}
{"molecule": "NCc1ccc(-c2cn3c(n2)sc2cc(C(=O)NCCCN4CCCCC4)ccc23)cc1Cl [compound 376]", "Myc Efficacy (−LogEC50)": "+++ (+++ ≥6)"}
{"molecule": "CNC(=O)c1ccc(-c2nc3sc4cc(C(=O)NCCCN5CCCCC5)ccc4n3n2)c(F)c1 [compound 386]", "Myc Efficacy (−LogEC50)": "+++ (+++ ≥6)"}
{"molecule": "CN1CCC(NC(=O)c2ccc3c(c2)sc2nc(-c4ccc(N5CCNCC5)cc4F)cn23)CC1 [Compound 547]", "Myc Efficacy (−LogEC50)": "+++ (+++ ≥6)"}
{"molecule": "CCN(CC)CCCNC(=O)c1ccc2c(c1)sc1nc(-c3ccc(C(C)C)cc3)cn12 [compound 136, formate]", "Myc Efficacy (−LogEC50)": "++ (++ ≥5 and <6)"}
{"molecule": "CCN(CC)CCCNC(=O)c1ccc2c(c1)sc1nc(-c3ccc(C4CCOCC4)cc3)cn12 [compound 314]", "Myc Efficacy (−LogEC50)": "+ (+ >3 and <5)"}
{"molecule": "Cc1ccc(-c2cn3c(n2)sc2cc(C(=O)NCCN)ccc23)cc1 [compound 122]", "Myc Efficacy (−LogEC50)": "+ (+ >3 and <5)"}
{"molecule": "CCN(CC)CCCNC(=O)c1ccc2c(c1)sc1nc(-c3ccc(N4CCOCC4)cc3)cn12 [compound 307]", "Myc Efficacy (−LogEC50)": "++ (++ ≥5 and <6)"}
{"molecule": "CCNCCCNC(=O)c1ccc2c(c1)sc1nc(-c3cccc(C)c3)cn12 [compound 155]", "Myc Efficacy (−LogEC50)": "++ (++ ≥5 and <6)"}
{"molecule": "CNC(=O)c1ccc(-c2cn3c(n2)sc2cc(C(=O)N[C@H]4c5ccccc5C[C@H]4O)ccc23)cc1 [compound 263]", "Myc Efficacy (−LogEC50)": "− (− ≤3)"}
{"molecule": "O=C(NC1CCOCC1)c1ccc2c(c1)sc1nc(-c3ccc(C4CCNCC4)cc3F)cn12 [Compound 529]", "Myc Efficacy (−LogEC50)": "+++ (+++ ≥6)"}
{"molecule": "CCN(CC)CCCC(=O)Nc1ccc2c(c1)sc1nc(-c3cccc(C)c3)cn12 [compound 266]", "Myc Efficacy (−LogEC50)": "+ (+ >3 and <5)"}
{"molecule": "O=C(NCCCN1CCCCCC1)c1ccc2c(c1)sc1nc(-c3ccccc3)cn12 [compound 103]", "Myc Efficacy (−LogEC50)": "+++ (+++ ≥6)"}
{"molecule": "CNC(=O)c1ccc(-c2cn3c(n2)sc2cc(C(=O)NCC4CC5(CNC5)C4)ccc23)cc1 [compound 272]", "Myc Efficacy (−LogEC50)": "− (− ≤3)"}
{"molecule": "CNC(=O)c1ccc(-c2cn3c(n2)sc2cc(C(=O)NC4(CO)CCOCC4)ccc23)cc1 [compound 237]", "Myc Efficacy (−LogEC50)": "− (− ≤3)"}
